The following compounds are listed with their measured half-life at 1 μM values.
Assay: Microsomal stability, rat liver microsomes
Format: in vitro ADME
Details: 0.5 mg/mL protein, Phase I plus Phase II cofactors, read-out: Microsomal Stability Rat Phase I & II t1/2

O=c1[nH]c2sc(CN3CCC(Br)CC3)cc2c2c(O)cccc12 = 3 min
O=c1[nH]c2sc(CN3CCCC3)cc2c2c(O)cccc12 = > 30 min
O=c1[nH]c2sc(CN3CCCCC3)cc2c2c(O)cccc12 = 18 min
Br.CN(C)Cc1cc2c([nH]c(=O)c3cccc(O)c32)s1 = < 1 min
O=c1[nH]c2sc(CN3CCSC3)cc2c2c(O)cccc12 = 5 min
O=c1[nH]c2sc(CN3CCOCC3)cc2c2c(O)cccc12 = > 30 min

Next compound, please.
stdin: GET /values?readout=half-life at 1 μM&item= CC(C)NCc1cc2c([nH]c(=O)c3cccc(O)c32)s1
stdout: < 1 min
